# System: LNCaP tumor xenograft-bearing CB17-SCID mice
# protocol.notes: Biodistribution in LNCaP tumor xenograft-bearing CB17-SCID mice
# test.settings: 24 h p.i.
The compounds listed here are annotated with their Biodistribution Submandibular gland.

compound: CCCCCC[C@H](NC(=O)CC[C@H](NC(=O)N[C@@H](CCC(=O)N[C@H](CCCNC(=O)CCC(=O)NCCCC[C@@H](NC(=O)[C@@H](CNC(=O)c1ccc([Si](F)(C(C)(C)C)C(C)(C)C)cc1)NC(=O)CN1CCN(CC(=O)[O-])CCN(CC(=O)[O-])CCN(CC(=O)[O-])CC1)C(=O)O)C(=O)O)C(=O)O)C(=O)O)C(=O)O.[177Lu+3] [[^177Lu]Lu-6, [^177Lu]Lu-Proinhibitor II]
Biodistribution Submandibular gland [% ID/g]: 0.07
--
compound: CC(C)(C)[Si](F)(c1ccc(C(=O)NCC(NC(=O)CN2CCN(CC(=O)[O-])CCN(CC(=O)[O-])CCN(CC(=O)[O-])CC2)C(=O)NC(CCCCNC(=O)CCC(=O)NCCCC(NC(=O)CCC(NC(=O)NC(CCc2nnn[nH]2)C(=O)O)C(=O)O)C(=O)O)C(=O)O)cc1)C(C)(C)C.[177Lu+3] (stereo not drawn) [[^177Lu]Lu-11, [^177Lu]Lu-Tetrazole Derivative 11]
Biodistribution Submandibular gland [% ID/g]: 0.04
--
compound: CCCCCC[C@H](NC(=O)[C@H](CCC(=O)O)NC(=O)N[C@@H](CCC(=O)N[C@H](CCCNC(=O)CCC(=O)NCCCC[C@@H](NC(=O)[C@@H](CNC(=O)c1ccc([Si](F)(C(C)(C)C)C(C)(C)C)cc1)NC(=O)CN1CCN(CC(=O)[O-])CCN(CC(=O)[O-])CCN(CC(=O)[O-])CC1)C(=O)O)C(=O)O)C(=O)O)C(=O)O.[177Lu+3] [[^177Lu]Lu-7, [^177Lu]Lu-Proinhibitor III]
Biodistribution Submandibular gland [% ID/g]: 0.05
